growth reference
- Test system: NCI-H23 lung
- Test Details: NCI-60 one-dose screen, 48 h (100 = growth as untreated, 0 = no growth, -100 = all killed)
- Details: 10 µM unless noted
Compounds without any hit were thinned out: in the full panel of roughly 83,000, 20% have a hit.
Record the value in %, omitting the unit from your answer.

Field: example entries. Status: answers known.
Compound	Assayed System	Assay Value
CN(C)CCN(C)c1ccc2ncc(C#Cc3cncc(C(=O)Nc4ccc(CN5CCN(C)CC5)c(C(F)(F)F)c4)c3)n2n1	NCI-H23 lung	-66.4
CCN(CC)c1ccc(NC2=C(Cl)C(=O)c3nc(C)ccc3C2=O)cc1	NCI-H23 lung	-10.3
COc1cc(OC)c(/C=C/S(=O)(=O)Cc2ccc(OC)c(NC(=O)CCC(=O)NO)c2)c(OC)c1	NCI-H23 lung	16.6
O=C(CSc1nc2ccccc2c(=O)n1-c1ccc(Cl)cc1)N/N=C/c1ccc(N2CCCCC2)cc1	NCI-H23 lung	65.9
O=C(NCc1ncc[nH]1)c1ccc(-c2nc3ccc4[nH]ncc4c3c3c2CCCC3)cc1	NCI-H23 lung	14.4

Which growth is reported for this compound? `C#CCOC(=O)[C@@H]1CCCN1CC#C`
96.7

Which growth is reported for this compound? `C#CCC#CCN1CCC[C@H]1C(=O)NCC(=O)OC`
96.7

Which growth is reported for this compound? `N#Cc1ccccc1Cn1c2nc(=N)c3ccccc3c-2nc2ccccc21`
52.4

Which growth is reported for this compound? `COc1ccc(-c2cc(-c3ccc(Cl)cc3)c(C#N)c(=O)n2Cc2ccc(C(=O)O)cc2)cc1`
85.9

Which growth is reported for this compound? O=C(NNc1nc2cc(F)ccc2n2c(CN3CC4CNCC4C3)ccc12)c1cnccn1 (stereo unspecified)
35.4

Which growth is reported for this compound? `NC/C(=C/F)COc1ccc2nc(NCc3cccnc3)oc2c1`
92.8

----------
- Tested on: SK-MEL-2 melanoma
- Test Details: NCI-60 one-dose screen, 48 h (100 = growth as untreated, 0 = no growth, -100 = all killed)
- Details: 10 µM unless noted
Compounds without any hit were thinned out: in the full panel of roughly 83,000, 20% have a hit.
Quantity Kind: growth (%)
Record the value in %, omitting the unit from your answer.

Field: example entries. Status: answers known.
Compound	Measure Unit	growth
CC1(C)[C@@H](O)CC[C@]2(C)[C@H]3CC[C@@H]4[C@H]5[C@H](C(=O)/C=C\c6ccccn6)CC[C@]5(O)CC[C@@]4(C)[C@]3(C)CC[C@@H]12	%	77.8
Cn1cc(-c2nnc(N)nc2-c2c[nH]c3ccc(F)cc23)c2cc(F)ccc21	%	97.1
O=C(CN1CCN(c2cc(=O)n(-c3ccccc3)c3ccccc23)CC1)Nc1cccc(C(F)(F)F)c1	%	92
COc1ccc(C(=O)c2c(N)c(C#N)cn2-c2ccccc2OC)cc1	%	45.3
Nc1nc(N)c2c(n1)NC(c1ccc(Cl)cc1)CC(c1ccc(Nc3nc(NCCO)nc(N4CCOCC4)n3)cc1)=N2 (stereo not given)	%	88.2

Which growth is reported for this compound? `Cn1ccnc1C(=O)/C=C/C=C/c1ccc(C(=O)Nc2ccc(F)cc2)cc1`
90.8

Which growth is reported for this compound? CC(c1ccccc1)N1CSc2nc3ncncc3n2C1 (stereo not given)
57.2

Which growth is reported for this compound? `NS(=O)(=O)c1ccc(Nc2nc(N/N=C/CCc3ccccc3)nc(Nc3ccccc3)n2)cc1`
105

Which growth is reported for this compound? O=C1CC(=O)N2CSCN(C(c3ccccc3)c3nc4ncncc4[nH]3)C2=N1 (stereo not given)
96.6

----------
- Test system: HCT-116 colon
- Test Details: NCI-60 one-dose screen, 48 h
- Details: 10 µM unless noted
The panel holds about 83,000 compounds, 20% with a hit somewhere; the sample as a whole holds those more often. Active and inactive are the calls of the source. The calls were made as follows: active = growth percent below 10; inactive = the rest.
Form entry, call: pick from yes = active, no = inactive

Please review the following examples before continuing.
Compound	Assigned Class
CCc1cccc2c3c(sc12)C(c1ccc(Cl)cc1)C(C#N)=C(/N=C/c1ccc(Cl)cc1)O3 (configuration not stated)	no
C/C(=N\O)[C@H]1C[C@]23CC[C@]4(C)[C@H](CC[C@@H]5[C@@]6(C)CC/C(=N/O)C(C)(C)[C@@H]6CC[C@]54C)[C@H]2[C@H](C)C1(C)OC3	no
FC(F)(F)c1cc(Nc2cccc(Oc3ccc(NC4=NCCN4)nc3)c2)ccc1Cl	yes
C#C[C@]1(O)CC[C@H]2[C@@H]3CC=C4c5sc(-c6ccc7c(c6)OCO7)nc5CC[C@]4(C)[C@H]3CC[C@@]21C	yes
Cc1ccc(-c2cc3nc(C(Cl)Cl)nc(-c4ccco4)n3n2)cc1	yes

Look up the recorded call for c1ccc(C(c2nc3ncncc3[nH]2)N2CSc3nc4ncncc4n3C2)cc1 (configuration not stated) in this test.
no

Look up the recorded call for `Cc1cc(-c2ccc(Cl)cc2)n(Cc2nnc(SCC(=O)Nc3ccc(S(N)(=O)=O)cc3)n2C2CCCCC2)n1` in this test.
no

Look up the recorded call for COc1ccc(/C=N/NC2=NC3C(S2)N(C)C(=O)N3C)cc1 (configuration not stated) in this test.
no

Look up the recorded call for `CC(=O)c1cc(C(=O)N2c3ccccc3Sc3ccccc32)n2ccc3ccccc3c12` in this test.
no

Look up the recorded call for `O=C(CN1CCN(c2cc(=O)n(-c3ccccc3)c3ccccc23)CC1)Nc1nc(-c2ccccc2)cs1` in this test.
no

Look up the recorded call for `Cc1ccc(NC(=O)c2ccc(CN3CCN(C)CC3)cc2)cc1Oc1ccc(-c2[nH]nc3ncnc(N)c23)cc1` in this test.
no

Look up the recorded call for `NS(=O)(=O)c1ccc(Nc2nc(N/N=C/c3c[nH]c4ccccc34)nc(Nc3ccccc3)n2)cc1` in this test.
no

Look up the recorded call for `COc1cc(-c2nn(C(C)(C)C)cc2-c2ccnc(NCCCNS(=O)(=O)c3cccc(F)c3)n2)ccc1Cl` in this test.
no

Look up the recorded call for `Clc1nc2ccccc2nc1-c1nnc(C2CCCCC2)o1` in this test.
no

Look up the recorded call for Cc1cc(C)c(N2C(=O)CC(Nc3ccc(Cl)cc3Cl)C2=O)c(C)c1 (configuration not stated) in this test.
no

Look up the recorded call for `CCCCc1nc(/C=N/Nc2nc(Nc3ccccc3)nc(Nc3ccc(S(N)(=O)=O)cc3)n2)c(Cl)[nH]1` in this test.
no

Look up the recorded call for CCCn1cnc2c(c1=N)C(c1ccc(F)cc1)c1sc3c(CC)cccc3c1O2 (configuration not stated) in this test.
yes

Look up the recorded call for `O=c1[nH]c(Sc2sc3ccc(Cl)cc3c2CBr)nc(=S)[nH]1` in this test.
no

Look up the recorded call for CC(Nc1c(C#N)cnc2ccc(-c3cnc(N)nc3)cc12)c1ccccc1 (configuration not stated) in this test.
no

Look up the recorded call for `NS(=O)(=O)c1ccc(Nc2nc(SCC(=O)c3ccc(Cl)cc3)nc3c2CCCC3)cc1` in this test.
no

Look up the recorded call for COc1cc2nc(Cl)nc(Nc3cccc(C4=Nc5c(N)nc(N)nc5NC(c5ccc(Br)cc5)C4)c3)c2cc1OC (configuration not stated) in this test.
yes

Look up the recorded call for `O=C(NNc1nc2cc(F)ccc2n2c(CO)ccc12)c1cnccn1` in this test.
no

Look up the recorded call for `O=S(=O)(NCCCNc1nccc(-c2[nH]c(-c3ccccc3)nc2-c2ccc(Cl)c(O)c2)n1)c1cccc2ccccc12` in this test.
no

Look up the recorded call for Cc1ccc2sc3c(c2c1)OC(N)=C(C#N)C3c1ccc(Cl)cc1 (configuration not stated) in this test.
no

Look up the recorded call for `Cn1ccnc1C(=O)/C=C/c1ccc(NC(=O)c2ccc(F)cc2)cc1` in this test.
yes

----------
growth reference
- System: SK-MEL-2 melanoma
- Test Details: NCI-60 one-dose screen, 48 h (100 = growth as untreated, 0 = no growth, -100 = all killed)
- Details: 10 µM unless noted
Compounds without any hit were thinned out: in the full panel of roughly 83,000, 20% have a hit.
Record the value in %, omitting the unit from your answer.

Input Smiles	Quantity Kind	Measure Unit	Assay Value
CC(=O)c1cc(C(=O)c2ccc(Br)cc2)n2cc(C)cc(C)c12	growth	%	102

Which growth is reported for this compound? `CC(=O)c1nnn(-c2c(C(=O)n3nc(C)cc3C)sc(=S)n2-c2ccccc2)c1C`
108

----------
- System: DU-145 prostate
- Test Details: NCI-60 one-dose screen, 48 h (100 = growth as untreated, 0 = no growth, -100 = all killed)
- Details: 10 µM unless noted
Compounds without any hit were thinned out: in the full panel of roughly 83,000, 20% have a hit.
Quantity Kind: growth (%)
Record the value in %, omitting the unit from your answer.

Field: example entries. Status: answers known.
Compound	growth (%)
Cc1ccc2c(c1)C13C(=C2Br)CCCN1C(=O)c1ccccc13 (stereo not given)	102
Cc1ccc(-c2nnc(SCc3ccc(O)c4ncccc34)o2)cc1	28.7
O=C1[C@@H]2Cc3c([nH]c4ccccc34)[C@H](c3c(Cl)cccc3Cl)N2C(=O)CN1C1CCN(CC2CCCCC2)CC1	34.4
CC(=O)c1cc(C(=O)c2ccc(Br)cc2)n2cc(C)cc(C)c12	94.8

Below: the item to evaluate.
Which growth is reported for this compound? `COc1cc(-c2ccc3ncnc(NCc4ccccc4)c3c2)cnc1OC`
24.3
